- System: CD8+ T cells
- Type: cell-based, human
- measurement_conditions: control donors aged 21-42, wk 0 directly ex vivo, peptide pulsed T2 cells 1:1; positive if SFC greater than 5 per 100000 CD8+ T cells, p<0.05
quantity_measured: number of donors who responded by IFNγ ELISpot

Lookup: Recorded number of donors who responded by IFNγ ELISpot for IMDKNIILKA (listed as Influenza virus) [NS1123-132, subdominant influenza peptide, pool 2] , please?
Found: One

Lookup: Try SLCPIRGWAI (listed as Influenza virus) [NA75-84, subdominant influenza peptide, pool 2] next.
Found: 2

Lookup: Let us now turn to SLENFRAYV (listed as Influenza virus) [PA225-233, subdominant influenza peptide, pool 1]
Found: One
